meta.source: patent US10253251B2

test system: Bovine Submaxillary Mucin (BSM); experiment: Loading capacity of BSM glycoprotein for hydrophobic ligands (ligand uptake); format: binding; conditions: LUP multiplied by BSM monomer-to-ligand molecular weight ratio
recorded.metric: BSM NBL (average number of bound ligands per BSM monomer)

[[record]]
compound = "c1cc2ccc3ccc4ccc5ccc6ccc1c1c2c3c4c5c61"
experimental_value = 44

[[record]]
compound = "c12c3c4c5c1c1c6c7c2c2c8c3c3c9c4c4c%10c5c5c1c1c6c6c%11c7c2c2c7c8c3c3c8c9c4c4c9c%10c5c5c1c1c6c6c%11c2c2c7c3c3c8c4c4c9c5c1c1c6c2c3c41"
experimental_value = 36

[[record]]
compound = "c1ccc2c(c1)cc1ccc3cccc4ccc2c1c34 [Bap, benzo[a]pyrene]"
experimental_value = 36

[[record]]
compound = "c1ccc2cc3ccccc3cc2c1"
experimental_value = 43

